# testedTarget: T1, human integrin αvβ6 (soluble, construct not stated) (human, UniProt P06756 31-1048; P18564 22-709)
# T1 chain 1: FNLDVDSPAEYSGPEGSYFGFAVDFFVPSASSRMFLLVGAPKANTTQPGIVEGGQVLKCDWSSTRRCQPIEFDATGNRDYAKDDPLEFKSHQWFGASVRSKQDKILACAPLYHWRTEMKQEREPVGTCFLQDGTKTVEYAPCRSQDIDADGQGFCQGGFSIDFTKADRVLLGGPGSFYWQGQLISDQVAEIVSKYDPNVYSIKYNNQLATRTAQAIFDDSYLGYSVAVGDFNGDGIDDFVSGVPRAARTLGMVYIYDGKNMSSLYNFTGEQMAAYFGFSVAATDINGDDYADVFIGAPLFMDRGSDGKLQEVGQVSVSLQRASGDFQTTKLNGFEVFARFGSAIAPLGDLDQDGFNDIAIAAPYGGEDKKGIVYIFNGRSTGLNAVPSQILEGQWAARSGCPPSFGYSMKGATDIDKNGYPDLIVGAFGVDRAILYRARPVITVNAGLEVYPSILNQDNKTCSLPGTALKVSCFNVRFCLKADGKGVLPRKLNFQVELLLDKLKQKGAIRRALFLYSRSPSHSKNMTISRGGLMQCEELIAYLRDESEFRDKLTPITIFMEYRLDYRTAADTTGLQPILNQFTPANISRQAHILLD
# T1 chain 2: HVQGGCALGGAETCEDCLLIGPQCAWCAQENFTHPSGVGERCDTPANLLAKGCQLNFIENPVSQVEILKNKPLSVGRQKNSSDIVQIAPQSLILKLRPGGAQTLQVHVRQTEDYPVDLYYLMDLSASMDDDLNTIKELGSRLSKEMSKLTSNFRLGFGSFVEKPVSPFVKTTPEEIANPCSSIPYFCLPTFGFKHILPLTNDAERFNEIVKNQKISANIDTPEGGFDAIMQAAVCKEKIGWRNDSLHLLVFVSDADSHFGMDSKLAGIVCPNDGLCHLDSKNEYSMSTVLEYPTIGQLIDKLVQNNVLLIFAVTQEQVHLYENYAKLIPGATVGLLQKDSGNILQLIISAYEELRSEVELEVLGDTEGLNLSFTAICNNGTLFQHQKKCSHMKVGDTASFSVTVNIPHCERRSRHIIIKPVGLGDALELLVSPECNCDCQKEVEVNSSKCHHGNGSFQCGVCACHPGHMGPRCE
# testDetails: BLI
Listed here are binders together with their documented Kd.
The figure you give is taken to be in nM; do not add the unit.

binder="B6_BP_dslf (designed binder) TKCVVRFVFRGDLAELMLRAVKDHLKKEGPHWNITSTNNGKELVVRGIHESDAKRIAKWVEKRFPRVHTETQCD" propertymeasured=Kd quantitativeresult=0.11
binder="MATI (protein, N/C-terminal disulfide staple (Cys3-Cys74); B8_BP_dslf with MAVY motif changed to MATI) TKCVVRFNFRGDMATIALKAVKDHLKKEGPHWNITTHNDDEVYLVVRGIHESDAKRIAKWVESTIPGISVETQCD" propertymeasured=Kd quantitativeresult=1.2

Lab note: next binder to report on.
// query // Kd lookup, key: MAVI (protein, N/C-terminal disulfide staple (Cys3-Cys74); B8_BP_dslf with MAVY motif changed to MAVI) TKCVVRFNFRGDMAVIALKAVKDHLKKEGPHWNITTHNDDEVYLVVRGIHESDAKRIAKWVESTIPGISVETQCD
// result 1.2
